Ref: ChEMBL document CHEMBL5244278

- Assay Notes: Half life in rat hepatocytes
- Type: ADME, cell-based, Hepatocyte
Measured Endpoint: half-life

Smiles Data	Measured Endpoint	Observed Measurement
Oc1cc(O)cc(/C=C/C23CC(O)(C2)C3)c1	half-life	24 min
Oc1ccc(/C=C/c2cc(O)cc(O)c2)cc1	half-life	< 7.5 min

====

- Tested Target: Polymerase acidic protein (Influenza A virus (A/Puerto Rico/8/1934(H1N1)), UniProt P03433)
Measured Endpoint: Ki

Smiles Data	Observed Measurement
CCN1CCC(Cc2ccc(Cl)cc2)(C(=O)/C=C(\O)C(=O)O)CC1	90 nM

====

- Assay Notes: Solubility of the compound in FaSSIF at pH 6.8 by RapidFire mass spectrometry
- Assay type: ADME
- Test Conditions: simulated gi fluid

Smiles Data	Operator	solubility (µM)
O=C(Cc1ccc(-c2ccccc2)cc1)Nc1cc(C2CC2)[nH]n1	=	0.006
O=C(Cc1ccc(B2C=CC=CN2)cc1)Nc1cc(C2CC2)[nH]n1	=	0.03
COc1ccccc1N1CCN(CCCCNC(=O)c2ccc(B3C=CC=CN3)cc2)CC1	=	0.22
O=C(NCCS(=O)(=O)c1ccc(C(F)(F)F)cn1)c1ccc(B2C=CC=CN2)cc1	=	0.006
COc1ccccc1N1CCN(CCCCNC(=O)c2ccc(-c3ccccc3)cc2)CC1	=	0.021
O=C(NCCS(=O)(=O)c1ccc(C(F)(F)F)cn1)c1ccc(-c2ccccc2)cc1	<	0.004
